Compiled from multiple publications: IC50 readings for Tyrosine-protein kinase JAK2 (Homo sapiens).

I looked up CC(C)C(Cn1ccc2cnc(Nc3cnn(CC(=O)OCCO)c3)nc21)C(C)C and its IC50 for Tyrosine-protein kinase JAK2 (Homo sapiens) was < 100 nM

I looked up Cc1cnc2nc1NCCCCCNC(=O)c1ccc(cc1)-c1cnc(F)c(c1)N2 and its IC50 for Tyrosine-protein kinase JAK2 (Homo sapiens) was 1000 to 10000 nM

I looked up COCCCN1CCN(C(=O)c2ccc3c(c2)[nH]c2c(C(N)=O)cc(-c4cccc(OC)c4)cc23)CC1 and its IC50 for Tyrosine-protein kinase JAK2 (Homo sapiens) was < 1 nM

I looked up C[C@H](O)C(=O)N1CC[C@H](Oc2ccc(-c3ncnc(Nc4ccc(-n5ccnc5)cc4)n3)cc2C#N)[C@H](F)C1 and its IC50 for Tyrosine-protein kinase JAK2 (Homo sapiens) was ≥ 1000 nM
